The reported numbers originate from patent US10800772B2.

- System: HIV-IIIb IN T174I DE
- Test details: Antiviral assay in MT4 cells, HIV-IIIb IN T174I DE virus (from dose escalation passaging)
- Format: cell-based, HIV-1
- Applied conditions: Human immunodeficiency virus 1, IIIB, MT4, 120 h, read-out: T174I DE EC50, MT4 cells, HIV-IIIb IN T174I DE (dose escalation), 5 days, CellTiter-Glo
Endpoint name: pEC50
As a rule, pEC50 stands for the negative log10 of the concentration, concentration in M.

Field: example entries. Status: answers known.
>>> measured_value("CCn1nc(C2CCN(C3CN(C(=O)OC)C3)CC2)c2nc(-c3nc4cc(C)c([C@H](OC(C)(C)C)C(=O)O)c(-c5ccc(Cl)cc5)c4s3)ccc21")
6.97
>>> measured_value("Cc1cc2nc(-c3ccc4c(c3)c(C3CCN([C@H]5CCN(C)C5)CC3)nn4C)sc2c(-c2ccc(Cl)cc2)c1[C@H](OC(C)(C)C)C(=O)O")
6.49
>>> measured_value("COC(=O)N1CC[C@H](N2CCC(c3nn(C)c4ccc(-c5nc6cc(C)c([C@H](OC(C)(C)C)C(=O)O)c(-c7ccc(Cl)cc7)c6s5)nc34)CC2)C1")
6.58
>>> measured_value("COC(=O)N1CC(N2CCC(c3cn(C)c4ncc(-c5nc6cc(C)c([C@H](OC(C)(C)C)C(=O)O)c(-c7ccc(Cl)cc7)c6s5)cc34)CC2)C1")
6.15
>>> measured_value("Cc1cc2nc(-c3ccc4c(c3)c(C3CCOCC3)nn4C)sc2c(-c2ccc(Cl)cc2)c1[C@H](OC(C)(C)C)C(=O)O")
5.56
>>> measured_value("CN[C@H]1CCN(c2nn(C)c3ccc(-c4nc5cc(C)c([C@H](OC(C)(C)C)C(=O)O)c(-c6ccc(Cl)cc6)c5s4)cc23)C1")
5.60
>>> measured_value("Cc1cc2nc(-c3ccc4c(c3)c(C3CCN(C5CC(F)(F)C5)CC3)nn4C)sc2c(-c2ccc(Cl)cc2)c1[C@H](OC(C)(C)C)C(=O)O")
5.72
>>> measured_value("Cc1cc2nc(-c3ccc4c(c3)c(C3CN(C(C)C)C3)nn4C)sc2c(-c2ccc(Cl)cc2)c1[C@H](OC(C)(C)C)C(=O)O")
5.48
>>> measured_value("Cc1cc2nc(-c3ccc4c(c3)c(N3CC5(CCCCC5)C3)nn4C)sc2c(-c2ccc(Cl)cc2)c1[C@H](OC(C)(C)C)C(=O)O")
5.04
>>> measured_value("Cc1cc2nc(-c3ccc4c(n3)c(C3CCN(CCN(C)C)CC3)nn4C)sc2c(-c2ccc(Cl)cc2)c1[C@H](OC(C)(C)C)C(=O)O")
7.05

Query string: Which pEC50 is listed for CC(=O)N1CC(N2CCC(c3nn(C)c4ncc(-c5nc6cc(C)c([C@H](OC(C)(C)C)C(=O)O)c(-c7ccc(Cl)cc7)c6s5)cc34)CC2)C1 ?
Result string: 5.77

Query string: Which pEC50 is listed for COCCN1CC[C@H](c2nn(C)c3ccc(-c4nc5cc(C)c([C@H](OC(C)(C)C)C(=O)O)c(-c6ccc(Cl)cc6)c5s4)cc23)C1 (single isomer, unassigned) ?
Result string: 5.80
